# credit: patent US20220056104A1

measurement_target: T1, Recombinant DR3-Fc (R&D Systems, cat. #943-D3) (UniProt Q93038 25-199, limits assumed)
T1 construct: dimeric MW~92 kDa; also called DR3 receptor; Fc-DR3; not shown: Fc part of the bought fusion
T1 sequence (looked up): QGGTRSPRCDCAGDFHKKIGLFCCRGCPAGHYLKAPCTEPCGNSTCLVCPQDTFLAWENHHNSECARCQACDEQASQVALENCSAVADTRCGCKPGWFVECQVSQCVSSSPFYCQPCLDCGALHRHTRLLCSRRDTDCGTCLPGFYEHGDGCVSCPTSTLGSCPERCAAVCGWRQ
experiment_notes: ELISA, DR3-Fc immobilized
pEC50: −log10 of the molar value.
parameter_measured: pEC50

| binder | parameter_measured | quantitative_readout |
| --- | --- | --- |
| TL1W45 (His-TEV-TL1A E190F) (ligand, also called TL1W45 (E190F)) HHHHHHENLYFQGLKGQEFAPSHQQVYAPLRADGDKPRAHLTVVRQTPTQHFKNQFPALHWEHELGLAFTKNRMNYTNKFLLIPESGDYFIYSQVTFRGMTSECSEIRQAGRPNKPDSITVVITKVTDSYPFPTQLLMGTKSVCEVGSNWFQPIYLGAMFSLQEGDKLMVNVSDISLVDYTKEDKTFFGAFLL | pEC50 | 7.50 |
